# measurement-target: T1, hTIGIT-hFc (human, UniProt Q495A1 22-141)
# T1 construct: also called antigen protein hTIGIT-hFc; human TIGIT recombinant protein carrying a human Fc tag; not shown: human Fc tag
# T1 sequence (looked up): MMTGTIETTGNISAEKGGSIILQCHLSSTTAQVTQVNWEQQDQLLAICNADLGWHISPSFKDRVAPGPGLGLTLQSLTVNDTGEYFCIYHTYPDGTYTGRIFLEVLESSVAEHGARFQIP
# assay-procedure: FACS blocking: hTIGIT-hFc bound on CHO-hCD112 cells, then antibody, APC anti-human IgG Fc; blocked partner CD112; unit from the x axis Log[µg/mL]
measurement-name: IC50 (µg/mL)
Write the number in µg/mL without appending the unit.

[
  {
    "binder": "3Tigit-16 mouse monoclonal antibody (antibody, V domains shown, Mouse monoclonal antibody from hybridoma) VH: EVQLQQSGPELVKPGASVKMSCKASGFTFTDYFMDWVKQSRGASFEWIGRLNPNNGRTSYNQKFKGKATLTVDKSSSTAYMELNSLTSEDSAVYYCARGDLGRWYFDVWGAGTTVTVSS VL: QIVLTQSPAIMSASPGEKVTMTCSASSSVSYMHWYQQKSGTSPKRWIYDTSKLASGVPTRFSGSGSGTSYSLTISSMEAEDAASYFCQQWSSNSLTFGAGTKLELKR",
    "IC50 [µg/mL]": 0.265
  },
  {
    "binder": "3Tigit-29 mouse monoclonal antibody (antibody, V domains shown, Mouse monoclonal antibody from hybridoma) VH: EVQLQQSGPELVKPGASVKISCKASGYTFTDYNMHWVKQSLGKSLEWIGYVNSFNGNTGYSQKFKSKVTLTVDRSSRTAYMDLRSLTSEDSAVFYCARSSRGGFAYWGQGTLVTVSA VL: QIVLTQSPAIMSASPGEKVTMTCSASSSVSYMHWYQQKSGTSPKRWIYDTSKLASGVPARFSGSVSGTSYSLTISSMEAEDAATYYCQQWSSNSLTFGAGTKLELKR",
    "IC50 [µg/mL]": 0.196
  }
]

Reported IC50 ( Tigit-5 mouse monoclonal antibody (antibody, V domains shown, Mouse monoclonal antibody from hybridoma) VH: QVQLQQPGAELVRPGASVKLSCKASGYSFTSYWMNWVKQRPGQGLEWIGMIRPSDSETRLNQMFKDKATLTVDKSSSTAYMQLSSPTSDDSAVYYCAGIHDYGHGAYWGQGTLVTVSA VL: DIQMIQSPASLSVSVGETVTITCRASENIYSNLAWYQQKQGKSPQLLVYAASHLPDGVPSRFSGSGSGTQYSLKINSLQSEDFGSYYCQHFWGTPRTFGGGTKLEIKR ) = 0.143

Hey, just so you know, these numbers are from patent US20240002500A1.
